B1: glmS ribozyme (parent)
chain: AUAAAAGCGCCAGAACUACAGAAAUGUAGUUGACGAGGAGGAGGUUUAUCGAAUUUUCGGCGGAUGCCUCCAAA

variants of: B1; experiment: self-cleavage kobs at 640 uM GlcN6P; higher = faster cleavage; RNA array; details: with glucosamine-6-phosphate
Fewer inactive variants are shown than the library holds.
Assignment: determine reported self-cleavage kobs at 640 uM GlcN6P for the given variants.
Answers are plain numbers, in s⁻¹.

Here is how some variants turned out for self-cleavage kobs at 640 uM GlcN6P.
Macromolecule Sequence	Result Units	Val
AUAAAAGCGCCAGAACUACAGAAAUGUAGUUGACGAGGAGGAGGUUUAUCGAAUUAUGGGCGGAUGCCUCCAAA [U56A C58G]	s⁻¹	4.15e-05
AUAAAAGCGCCAGAACUACAGAAAUGUAGAUUACGAGGAGGAGGUUUAUCGAAUUUUCGGCGGAUGCCUCCAAA [U30A G32U]	s⁻¹	7.63e-05
AUAAAAGCGCCAGUUCUACAGAAAUGUACUUGACGAGGAGGAGGUUUAUCGAAUUUUCGGCGGAUGUCUGCAAA [A14U A15U G29C C67U C70G]	s⁻¹	0.00266
AUAAAAGCGCCAGAUCUACAGAAAUGUAGUUGACGAGGAGGAGGUUUAUCGAAUUUUCGGCGGAUUCCUCCAAA [A15U G66U]	s⁻¹	6.31e-05
AUAAAAGCGCCAGAACUACAGAAAUGUAGUUGACGAGGAGGGGGUUGAUCGAAUUUUCGGCGGAUGCCUCCAAA [A42G U47G]	s⁻¹	0.0029

Batch request: self-cleavage kobs at 640 uM GlcN6P for each of the following variants.
1. AUAAAAGCGCCAGAACUACAGAAAUGUAGCUGACGAGGAGGAGGUGUAUCGAAUUUUCGGCGGAUGCCUUCAAA [U30C U46G C70U]
2. AUAAAAGCGCCUGAACUACAGAAAUGUAGUUGACGAGGAGGAGGUUUAUCGAAUUUUCGACGGAUGCCUCCAAA [A12U G60A]

4.5e-05
2.88e-05

Batch request: self-cleavage kobs at 640 uM GlcN6P for each of the following variants.
1. AUAAAAGCGCCAGAACUACAGAAAUGUAGUGGACGAGGAGGAGGUUUAUCGAAUUUUCGGCGGAUGCAUCCAAA [U31G C68A]
2. AUAAAAGCGCCAGAACUACAGAAAUGUAGUUGACGAGGAGCAGGUUUAUCGAAUUAUCGGCGGAUGCCUCCAAA [G41C U56A]
3. AUAAAAGCGCCAGAACUACAGAAAUGUAGUCGACGAGGAGGAGGCUUAUCGAAUUUUCGGCGGAUGCCUCCAAA [U31C U45C]
4. AUAAAAGCGCCAGAACUACAGAAAUGUAGUUGACGAGGAGGAGGUUUAUGGAAUUUUCGGCGAAUGCCUGCAAA [C50G G63A C70G]
5. AUAAAAGCGCCAGAACUACAGAAAUGUAGUUGACGAGGAAUAGGUUUAUCGAAUUUUCGGCGGAUGCCUCCAAA [G40A G41U]
6. AUAAAAGCGCCAGAACUACAGAAAUGUAGUUGACGAGGUUGAGGUUUAUCGAAUUUUCGGCGGAUGCCUCCAAA [A39U G40U]
7. AUAAAAGCGCCAGCACUACAGAAAUGUAGAUGACGAGGAGGAGGUUUAUCGAAUUUUCGGCGGAUGCCUCCAAA [A14C U30A]
8. AUAAAAGCGCCAGAACUACAGAAAUGUAGUUGACGAGGAGGAGUGUUAUCGACUUUUCGGCGGAUGCCUCCAAA [G44U U45G A53C]

1: 3.5e-05; 2: 2.18e-05; 3: 5.17e-05; 4: 0.000198; 5: 2.54e-05; 6: 0.00112; 7: 0.000182; 8: 0.000372
